Where these numbers come from: patent US20260250320A1

Molecular target: T1, interleukin-23 receptor (IL-23R) (UniProt Q5VWK5 24-629, limits assumed)
T1 sequence (looked up): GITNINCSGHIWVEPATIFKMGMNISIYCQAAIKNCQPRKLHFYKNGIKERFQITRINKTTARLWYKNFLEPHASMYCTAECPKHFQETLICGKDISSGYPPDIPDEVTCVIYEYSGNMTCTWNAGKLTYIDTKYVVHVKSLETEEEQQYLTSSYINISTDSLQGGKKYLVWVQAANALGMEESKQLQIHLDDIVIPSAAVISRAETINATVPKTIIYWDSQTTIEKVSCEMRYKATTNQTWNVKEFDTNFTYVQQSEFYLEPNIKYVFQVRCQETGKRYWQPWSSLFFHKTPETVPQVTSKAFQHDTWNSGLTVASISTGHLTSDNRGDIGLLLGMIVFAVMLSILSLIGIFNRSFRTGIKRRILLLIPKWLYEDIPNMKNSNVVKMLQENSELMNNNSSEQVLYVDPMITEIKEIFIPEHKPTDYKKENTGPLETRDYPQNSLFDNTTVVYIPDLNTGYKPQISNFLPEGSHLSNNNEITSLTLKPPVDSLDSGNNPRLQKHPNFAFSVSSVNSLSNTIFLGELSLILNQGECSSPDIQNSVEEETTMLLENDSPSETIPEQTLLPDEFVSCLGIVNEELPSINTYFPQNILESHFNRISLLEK
Assay: cell-based or functional assay
*1 amine or outer side, *2 acyl side, *3 side chain or, on linkers, in order; H or OH if unused. Bridges are numbered along the chain shown (N, C = ends). Primed or numbered codes have the meaning given here. Side-chain parts run from the residue outwards. [ ]: non-standard residue; d: D form. PEG2′ = PEG2 spacer unit (not further defined); Trp(7-Me) = Cc1cccc2c(C[C@H](N)C(=O)O)c[nH]c12; γGlu = O=C(O)[C@H](CCC(=O)[*:2])N[*:1]; 2Nal = N[C@@H](Cc1ccc2ccccc2c1)C(=O)O; AEF = NCCOc1ccc(C[C@H](N)C(=O)O)cc1; 3Pal = N[C@@H](Cc1cccnc1)C(=O)O; Pen = CC(C)(S)[C@H](N)C(=O)O; Thp = NC1(C(=O)O)CCOCC1; Sar = CNCC(=O)O
We begin with a simple list: items and their reported PBMC pSTAT3 IC50.

>  <Binder>
Ac-[dR][Pen]XT[Trp(7-Me)]K(Ac)[Pen][AEF][2Nal][Thp]K([PEG2′-PEG2′-γGlu-C18OH])N[3Pal][Sar]-NH2 (disulfide 2-7 (inferred); not fully specified (residue 3); printed as MeCO-r-Pen(3)-K(d)-T-7MeW-K(Ac)-Pen(3)-AEF-2Nal-THP-K(PEG2PEG2gEC18OH)-N-3Pya-Sar-CONH2) [SEQ ID NO: 37]

>  <PBMC pSTAT3 IC50>
< 0.5 nM

$$$$

Here's the next entry for you.
Record Ac-K[Pen]NT[Trp(7-Me)]K(Ac)[Pen][AEF][2Nal][Thp]EN[3Pal][Sar]-NH2 (disulfide 2-7 (inferred); not fully specified (residue 1); printed as MeCO-k(PEG12gEC20OH)-Pen(3)-N-T-7MeW-K(Ac)-Pen(3)-AEF-2Nal-THP-E-N-3Pya-Sar-CONH2) [SEQ ID NO: 26] . Reported PBMC pSTAT3 IC50: < 0.5 nM
